# Assay notes: Protein binding in plasma in pH 7.4 at 20 ug/ml by spectrophotometry
# Assay type: ADME, cell-free
# Condition set: read-out: PB (converted)
Measured endpoint: fraction unbound at 20 ug/ml
Just the number.

{"Molecule": "CCOC(=O)CNC(=O)C1CCn2c(C(=O)c3ccccc3)ccc21 (racemic)", "fraction unbound at 20 ug/ml": 0.55}
{"Molecule": "CCOC(=O)C(Cc1c[nH]c2ccccc12)NC(=O)C1CCn2c(C(=O)c3ccccc3)ccc21 (racemic)", "fraction unbound at 20 ug/ml": 0.55}
{"Molecule": "CCOC(=O)CCNC(=O)C1CCn2c(C(=O)c3ccccc3)ccc21 (racemic)", "fraction unbound at 20 ug/ml": 0.621}

QUERY: What does the record list as fraction unbound at 20 ug/ml for CCOC(=O)C(NC(=O)C1CCn2c(C(=O)c3ccccc3)ccc21)C(C)C (racemic) ?
RESULT: 0.55

QUERY: What does the record list as fraction unbound at 20 ug/ml for CCOC(=O)C(CC(C)C)NC(=O)C1CCn2c(C(=O)c3ccccc3)ccc21 (racemic) ?
RESULT: 0.55

QUERY: What does the record list as fraction unbound at 20 ug/ml for CCOC(=O)C(C)NC(=O)C1CCn2c(C(=O)c3ccccc3)ccc21 (racemic) ?
RESULT: 0.811

QUERY: What does the record list as fraction unbound at 20 ug/ml for CCOC(=O)C(NC(=O)C1CCn2c(C(=O)c3ccccc3)ccc21)C(C)CC (racemic) ?
RESULT: 0.55

QUERY: What does the record list as fraction unbound at 20 ug/ml for CCOC(=O)CCC(NC(=O)C1CCn2c(C(=O)c3ccccc3)ccc21)C(=O)OCC (racemic) ?
RESULT: 0.55

QUERY: What does the record list as fraction unbound at 20 ug/ml for CCOC(=O)CC(NC(=O)C1CCn2c(C(=O)c3ccccc3)ccc21)C(=O)OCC (racemic) ?
RESULT: 0.55

QUERY: What does the record list as fraction unbound at 20 ug/ml for CCOC(=O)C(Cc1ccccc1)NC(=O)C1CCn2c(C(=O)c3ccccc3)ccc21 (racemic) ?
RESULT: 0.55

---

# Assay notes: Chloroform-acidic buffer partition coefficient, log K at pH 1.4
# Format: physicochemical
# Condition set: chloroform/acidic buffer, pH 1.4
Criterion: K meeting or surpassing 400. Met: Criterion met. Not met: Criterion not met.

Here are 5 compounds together with their reported answers.
{"Compound": "CCOC(=O)C(NC(=O)C1CCn2c(C(=O)c3ccccc3)ccc21)C(C)C (racemic)", "Label value": "Criterion not met"}
{"Compound": "CCOC(=O)C(Cc1ccccc1)NC(=O)C1CCn2c(C(=O)c3ccccc3)ccc21 (racemic)", "Label value": "Criterion met"}
{"Compound": "CCOC(=O)CCNC(=O)C1CCn2c(C(=O)c3ccccc3)ccc21 (racemic)", "Label value": "Criterion not met"}
{"Compound": "O=C(c1ccccc1)c1ccc2n1CCC2C(=O)O (stereo not given)", "Label value": "Criterion not met"}
{"Compound": "CCOC(=O)CC(NC(=O)C1CCn2c(C(=O)c3ccccc3)ccc21)C(=O)OCC (racemic)", "Label value": "Criterion not met"}

QUERY: Is it the case that CCOC(=O)C(C)NC(=O)C1CCn2c(C(=O)c3ccccc3)ccc21 (racemic) has K reaching or exceeding 400?
RESULT: Criterion not met

QUERY: Is it the case that CCOC(=O)CCC(NC(=O)C1CCn2c(C(=O)c3ccccc3)ccc21)C(=O)OCC (racemic) has K reaching or exceeding 400?
RESULT: Criterion not met

QUERY: Is it the case that CCOC(=O)C(CC(C)C)NC(=O)C1CCn2c(C(=O)c3ccccc3)ccc21 (racemic) has K reaching or exceeding 400?
RESULT: Criterion met

QUERY: Is it the case that CCOC(=O)C(NC(=O)C1CCn2c(C(=O)c3ccccc3)ccc21)C(C)CC (racemic) has K reaching or exceeding 400?
RESULT: Criterion met

QUERY: Is it the case that CCOC(=O)CNC(=O)C1CCn2c(C(=O)c3ccccc3)ccc21 (racemic) has K reaching or exceeding 400?
RESULT: Criterion not met
